# key: entry, value: growth
- System: UACC-62 melanoma
- Measurement description: NCI-60 one-dose screen, 48 h (100 = growth as untreated, 0 = no growth, -100 = all killed)
- Condition set: 10 µM unless noted
About 83,000 compounds went through this panel and 20% of them were active in at least one assay; those are over-represented in the sample as a whole.
Measure name: growth (%)

>>> print(df.to_string())
                                    compound  unit_of_measurement  reported_result
 0  O=C(CCN1CCCC1)Nc1ccc2c(Nc3ccc(F)cc3)c3ccccc3nc2c1                    %             21.5
 1  Oc1cccc(CCc2ccc(Oc3cc(CCc4cccc(O)c4)cc(O)c3O)cc2)c1                    %             73.3
 2                         CCC(CC)NCC(C)(C)O                    %             94.4
 3  CCNc1nc2ccc(Nc3ccnc4cc(Cl)ccc34)cc2[nH]1                    %             92.5
 4  C=C(C)[C@@H]1CC[C@]2(C(=O)N[C@H](CO)Cc3ccccc3)CC[C@]3(C)[C@H](CC[C@@H]4[C@@]5(C)CCCNC(C)(C)[C@@H]5CC[C@]43C)[C@@H]12                    %            -85.6
 5  O=C1c2ccccc2C(=O)c2c([N+](=O)[O-])ccc(Cl)c21                    %             96.5
 6  O=C(Nc1ccc(F)cc1)Nc1ccc(NC(=O)c2cc(Cl)nc3ccccc23)cc1                    %               72
 7  O=C(CCN1CCCC1)Nc1ccc2c(NCc3ccccc3)c3ccccc3nc2c1                    %            -16.1
 8  COc1ccc(/C=C/C(=O)Nc2cc(/C=C\c3cc(OC)c(OC)c(OC)c3)cc(OC)c2OC)cc1OC                    %             16.3
 9  C=C1C(=O)O[C@H]2[C@H]1CC/C(C(=O)NCCCCCNC(=O)/C1=C/CC[C@@]3(C)O[C@H]3[C@H]3OC(=O)C(=C)[C@@H]3CC1)=C\CC[C@@]1(C)O[C@@H]21                    %             97.9
10  O=C(Cn1c[n+](CC(=O)c2ccc(-c3ccccc3)cc2)c2ccccc21)Nc1cccc2cccnc12                    %            -32.3
11  CC(=O)N1c2ccccc2NC2=C(C(=O)NC2(C)C)C1c1ccco1 (stereo not given)                    %             66.5
12  Cc1ccc(CNc2c3ccccc3nc3cc(NC(=O)CCN4CCCC4)ccc23)cc1                    %             36.1
13  c1ccc2c(-c3c[nH]c4ccccc34)c3c(cc2c1)[nH]c1ccccc13                    %             68.3
14  Nc1c(C(=O)Nc2ccnc3ccccc23)sc2nc3c(cc12)CN(Cc1ccccc1)CC3                    %             49.4
15  Cc1cc2c(C(=O)NCC#N)cccc2n1-c1nc2c(c(NCc3ccccc3)n1)CCCC2                    %            -78.2
16  CCCCC/C=C/C(C)=C/C1CC(C)C/C=C/CCC(O)C(OC(N)=O)CCC(C)CC(O)C(C)C(=O)O1 (stereo not given)                    %               82
17  CC1=C(C(=O)/C=C/c2ccc(N(C)C)cc2)C(c2ccccc2)NC(=S)N1 (stereo not given)                    %             94.3
18  O=S(=O)(NCCNc1nccc(-c2c(-c3cccc(F)c3)nc3sccn23)n1)c1ccc(Cl)cc1                    %             44.3
19  CN1CCN(CCNc2nccc(-c3c(-c4cccc(O)c4)nc4sccn34)n2)S1(=O)=O                    %             3.85
